Sourced from patent US7629318B2

EXPERIMENTAL DETAILS: Stability of compounds in mouse blood plasma
Type: in vitro ADME
Numbered stars: 1 amine (or outer) side, 2 acyl side, 3 side chain; on linkers, the order of the positions; unused ones are H or OH. Square brackets hold non-standard residues; d marks the D form. Peptide text beside a SMILES is read from it. ξ: configuration not given here. Gly(1-amidinopiperidin-4-yl) = N=C(N)N1CCC([C@H](N)C(=O)O)CC1; X1 = CC(C)c1oc([C@H](CO)N[*:1])nc1C(=O)[*:2]; Pro(3R-Ph) = O=C(O)[C@H]1NCC[C@@H]1c1ccccc1; Met(O) = CS(=O)CC[C@H](N)C(=O)O; Tic = O=C(O)[C@@H]1Cc2ccccc2CN1; Cha = N[C@@H](CC1CCCCC1)C(=O)O; ξDisc = O=C(O)C1NCc2ccccc21; Nle = CCCC[C@H](N)C(=O)O
READOUT KIND: Stability (Arbitrary units) Mouse 24 h

Request: Which Stability (Arbitrary units) Mouse 24 h value is on record for CSCC[C@H](NC(=O)C1c2ccccc2CN1C(=O)[C@@H](NC(=O)[C@H](CC1CCCCC1)NC(C)=O)C1CCN(C(=N)N)CC1)C(N)=O (stereo partly drawn) [Compound P66-1, Ac-Cha-Gpg-Disc-Met-NH2] (Ac-[Cha][Gly(1-amidinopiperidin-4-yl)][ξDisc]M-NH2) ?
Response: 112 Arbitrary units

Request: Same lookup for CCCC[C@H](NC(=O)[C@@H]1Cc2ccccc2CN1C(=O)[C@H](CCCNC(=N)N)NC(=O)[C@H](CC1CCCCC1)NC(C)=O)C(=O)N1CC[C@H](c2ccccc2)[C@H]1C(=O)N[C@@H](CO)c1nc(C(=O)N(C)C)c(C(C)C)o1 [Compound P51] (Ac-[Cha]R[Tic][Nle][Pro(3R-Ph)][X1]-NMe2) , please.
Response: 136 Arbitrary units

Request: Same lookup for CSCC[C@H](NC(=O)C1c2ccccc2CN1C(=O)[C@H](CCCNC(=N)N)NC(=O)[C@H](CC1CCCCC1)NC(C)=O)C(N)=O (stereo partly drawn) [Compound P12-1, Ac-Cha-Arg-Disc-Met-NH2] (Ac-[Cha]R[ξDisc]M-NH2) , please.
Response: 38 Arbitrary units

Let us examine a further case.
Request: Which Stability (Arbitrary units) Mouse 24 h value is on record for CC(=O)N[C@@H](CC1CCCCC1)C(=O)N[C@@H](CCCNC(=N)N)C(=O)N1Cc2ccccc2C[C@H]1C(=O)N[C@@H](CC[S+](C)[O-])C(=O)N1CC[C@H](c2ccccc2)[C@H]1C(=O)N[C@@H](CO)c1nc(C(=O)N(C)C)c(C(C)C)o1 (stereo partly drawn) [Compound P43] (Ac-[Cha]R[Tic][Met(O)][Pro(3R-Ph)][X1]-NMe2) ?
Response: 82 Arbitrary units

###

The following compounds are listed with their measured % Reduction of response to HEL values.
Tested on: T cell activation from 0401(DR4) chimeric MHCII-mice
EXPERIMENTAL DETAILS: In vivo inhibition of T cell activation by co-immunisation, DR4 mice immunised with HEL
Set-up: species or system mouse
MEASUREMENT SETUP: DR4 mice co-immunised with HEL plus compound; mean % inhibition from the control over 3 concentrations of antigen (6.7, 20 and 60 ug)
Numbered stars: 1 amine (or outer) side, 2 acyl side, 3 side chain; on linkers, the order of the positions; unused ones are H or OH. Square brackets hold non-standard residues; d marks the D form. Peptide text beside a SMILES is read from it. * marks the point of attachment. Gly(1-amidinopiperidin-4-yl) = N=C(N)N1CCC([C@H](N)C(=O)O)CC1; X1 = CC(C)c1oc([C@H](CO)N[*:1])nc1C(=O)[*:2]; Pro(3R-Ph) = O=C(O)[C@H]1NCC[C@@H]1c1ccccc1; Tic = O=C(O)[C@@H]1Cc2ccccc2CN1; Cha = N[C@@H](CC1CCCCC1)C(=O)O; NMe(benzyl) = CN(Cc1ccccc1)*; Nle = CCCC[C@H](N)C(=O)O; X2 = OCCOCCN(Cc1ccccc1)*
Reply with the number, then its unit.

For orientation, consider the following solved cases.
Request: Which % Reduction of response to HEL value is on record for CSCC[C@H](NC(=O)[C@@H]1Cc2ccccc2CN1C(=O)[C@@H](NC(=O)[C@H](CC1CCCCC1)NC(C)=O)C1CCN(C(=N)N)CC1)C(=O)N(CCOCCO)Cc1ccccc1 [Compound P102, Ac-Cha-Gpg-Tic-Met-N(Bn)CH2CH2OCH2CH2OH] (Ac-[Cha][Gly(1-amidinopiperidin-4-yl)][Tic]M-X2) ?
Response: 41.3%

Request: Same lookup for CCCC[C@H](NC(=O)[C@@H]1Cc2ccccc2CN1C(=O)[C@@H](NC(=O)[C@H](CC1CCCCC1)NC(C)=O)C1CCN(C(=N)N)CC1)C(=O)N1CC[C@H](c2ccccc2)[C@H]1C(=O)N[C@@H](CO)c1nc(C(=O)N(C)C)c(C(C)C)o1 [Compound P53] (Ac-[Cha][Gly(1-amidinopiperidin-4-yl)][Tic][Nle][Pro(3R-Ph)][X1]-NMe2) , please.
Response: 68.4%

Let us examine a further case.
Request: Which % Reduction of response to HEL value is on record for CCCC[C@H](NC(=O)[C@@H]1Cc2ccccc2CN1C(=O)[C@H](CCCNC(=N)N)NC(=O)[C@H](CC1CCCCC1)NC(C)=O)C(=O)N(C)Cc1ccccc1 [Compound P71, Ac-Cha-Arg-Tic-Nle-N(Me)Bn] (Ac-[Cha]R[Tic][Nle]-{NMe(benzyl)}) ?
Response: 78.1%
